Listing: IC50 of selected compounds
subjectOfTest: Indoleamine 2,3-dioxygenase 1 (Homo sapiens, UniProt P14902)
Sequence (P14902 whole entry): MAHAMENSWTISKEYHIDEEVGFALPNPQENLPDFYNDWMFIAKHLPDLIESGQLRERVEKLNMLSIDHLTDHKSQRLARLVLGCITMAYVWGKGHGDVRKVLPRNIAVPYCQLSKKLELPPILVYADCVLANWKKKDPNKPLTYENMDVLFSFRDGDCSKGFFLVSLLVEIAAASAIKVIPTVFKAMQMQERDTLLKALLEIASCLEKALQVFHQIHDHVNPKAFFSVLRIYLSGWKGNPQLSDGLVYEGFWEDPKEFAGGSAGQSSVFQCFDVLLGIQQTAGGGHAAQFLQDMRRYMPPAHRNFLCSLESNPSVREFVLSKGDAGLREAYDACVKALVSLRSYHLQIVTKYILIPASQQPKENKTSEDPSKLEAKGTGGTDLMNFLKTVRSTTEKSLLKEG
particulars: read-out: IC50
Give your result in µM as a bare value.

What value of IC50 on Indoleamine 2,3-dioxygenase 1 (Homo sapiens, UniProt P14902) does "CCC(CC)/N=C1/C=C(C2=C/C(=N\C(CC)CC)c3ccccc3C2=O)C(=O)c2ccccc21" have?
0.52

New cases:
Record lookup: for Indoleamine 2,3-dioxygenase 1 (Homo sapiens, UniProt P14902), what IC50 belongs to "Nc1nc(-c2ccccc2)cs1" ?
1000

Indoleamine 2,3-dioxygenase 1 (Homo sapiens, UniProt P14902) / IC50 / "c1cc(-c2cnn[nH]2)ccn1" : value?
5

* * *

testDetails: Cytotoxicity against HEK293 cells expressing human recombinant IDO by MTT assay
Format: cell-based
particulars: human, HEK293 cells expressing human recombinant IDO; read-out: LD50 (the source's name)
measureName: CC50

Solved entries:
Query (molecule): "CCC(CC)/N=C1/C=C(C2=C/C(=N\C(CC)CC)c3ccccc3C2=O)C(=O)c2ccccc21" ; field requested: CC50
> 400 µM

Quick one: CC50 of "Cn1cc(C[C@H](N)C(=O)O)c2ccccc21" ?
> 400 µM

Name the recorded CC50 for "Sc1nc(-c2ccccc2)cs1" .
> 80 µM

Next molecule, CC50 to be filled in.
I would be grateful if you could share the reported CC50 for "c1ccc(-c2cnn[nH]2)cc1" .
> 400 µM

* * *

Catalogue of compounds with associated IC50
subjectOfTest: Indoleamine 2,3-dioxygenase 1 (Homo sapiens, UniProt P14902)
particulars: read-out: IC50
Give the number; µM is assumed, so skip it.

I'd like to know its IC50. The compound in question is "CC(C)(C)Nc1ccc(O)c2ccccc12"
4

Next:
What value of measured IC50 is listed for "CCNc1ccc(O)c2ncccc12" ?
40

* * *

testDetails: Cytotoxicity against mouse P815B cells expressing mouse recombinant IDO by MTT assay
Type: cell-based
particulars: read-out: LD50 (the source's name)
measureName: CC50

The examples below pair each entry with its known result.
Query: CC50; subject: SC1Nc2ccccc2S1 (stereo not drawn)
> 80 µM

Entry under review: "CC(C)Nc1ccc(O)c2ncccc12" . Reported CC50?
> 200 µM

Further cases:
Entry "CC(C)Nc1ccc(O)c2ccccc12" has what CC50?
> 80 µM
